Provenance of the data: patent US20210301005A1

# MEASURED_TARGET: T1, human TGFβ3, mature dimeric form (human, UniProt P10600 301-412)
# T1 sequence: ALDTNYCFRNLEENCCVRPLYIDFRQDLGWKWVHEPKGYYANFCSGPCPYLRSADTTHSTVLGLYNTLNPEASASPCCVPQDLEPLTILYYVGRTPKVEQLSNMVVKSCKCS
# TEST_PROTOCOL: cell-based or functional assay
# Lookup of reported HEKBlue TGFβ blocking IC50 keyed by entry
READOUT_KIND: HEKBlue TGFβ blocking IC50 (pM)

INSERT INTO results (binder, experimental_result) VALUES
  ('h4A11.v7.16 (antibody, human IgG1, kappa, N297G, V domains shown) VH: EVQLQESGPGLVKPSETLSLTCTVTGFSLSSYTVNWIRQPAGKGLEWIGYISYGGSAYYASWANGRVTISKDTSKNQFSLKLSSVTAADTAVYFCARHMQVGGAPTGSMAAFDPWGQGTLVTVSS VL: EIVLTQSPGTLSLSPGERATLSCQSSQSVYNNNYLSWFQQKPGQAPRLLIYGASTLTSGIPDRFSGSGSGTDFTLTISRLEPEDFAVYYCAGGYSGSSDKYAFGGGTKVEIKR', 130),
  ('h4A11.v7.17 (antibody, human IgG1, kappa, N297G, V domains shown) VH: EVQLQESGPGLVKPSETLSLTCTVTGFSLSSYTVNWIRQPAGKGLEWIGYISYGGSAYYASWANGRVTISKDTSKNQVSLKLSSVTAADTAVYYCARHMQVGGAPTGSMAAFDPWGQGTLVTVSS VL: EIVLTQSPGTLSLSPGERATLSCQSSQSVYNNNYLSWFQQKPGQAPRLLIYGASTLTSGIPDRFSGSGSGTDFTLTISRLEPEDFAVYYCAGGYSGSSDKYAFGGGTKVEIKR', 170),
  ('h4A11.v7.18 (antibody, human IgG1, kappa, N297G, V domains shown) VH: EVQLQESGPGLVKPSETLSLTCTVTGFSLSSYTVNWIRQPAGKGLEWIGYISYGGSAYYASWANGRVTISKDTSKNQVSLKLSSVTAADTAVYFCARHMQVGGAPTGSMAAFDPWGQGTLVTVSS VL: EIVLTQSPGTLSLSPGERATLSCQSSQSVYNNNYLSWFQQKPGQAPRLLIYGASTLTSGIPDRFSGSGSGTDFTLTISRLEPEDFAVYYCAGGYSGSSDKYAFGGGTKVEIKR', 110);
